test system: Burkholderia pseudomallei; experiment: Antimicrobial activity against Burkholderia pseudomallei KHW in presence of 31.3 uM omeprazole; format: functional

| INPUT_SMILES | VALUE_COMPARATOR | MIC (µg/mL) |
| --- | --- | --- |
| CC[C@H]1OC(=O)[C@H](C)[C@@H](O[C@H]2C[C@@](C)(OC)[C@@H](O)[C@H](C)O2)[C@H](C)[C@@H](O[C@@H]2O[C@H](C)C[C@H](N(C)C)[C@H]2O)[C@](C)(O)C[C@@H](C)C(=O)[C@H](C)[C@@H](O)[C@]1(C)O | = | 128 |
| CN[C@@H]1[C@H](O)[C@H](NC)[C@H]2O[C@@]3(O)C(=O)C[C@@H](C)O[C@H]3O[C@@H]2[C@H]1O | = | 256 |
| CC[C@H]1OC(=O)[C@H](C)[C@@H](O[C@H]2C[C@@](C)(OC)[C@@H](O)[C@H](C)O2)[C@H](C)[C@@H](O[C@@H]2O[C@H](C)C[C@H](N(C)C)[C@H]2O)[C@](C)(O)C[C@@H](C)CN(C)[C@H](C)[C@@H](O)[C@]1(C)O | = | 32 |
| CN[C@@H]1[C@H](O[C@H]2[C@H](O[C@H]3[C@H](O)[C@@H](O)[C@H](N=C(N)N)[C@@H](O)[C@@H]3N=C(N)N)O[C@@H](C)[C@]2(O)C=O)O[C@@H](CO)[C@H](O)[C@H]1O | = | 1020 |
| CO[C@H]1C[C@H](O[C@H]2[C@H](C)[C@@H](O[C@@H]3O[C@H](C)C[C@H](N(C)C)[C@H]3O)[C@@H](C)C[C@@]3(CO3)C(=O)[C@H](C)[C@@H](O)[C@@H](C)[C@@H](C)OC(=O)[C@@H]2C)O[C@@H](C)[C@@H]1O | > | 2000 |
| C[C@H]1COc2c(N3CCN(C)CC3)c(F)cc3c(=O)c(C(=O)O)cn1c23.C[C@H]1COc2c(N3CCN(C)CC3)c(F)cc3c(=O)c(C(=O)O)cn1c23.O | = | 2 |

###

tested on: Burkholderia pseudomallei; assay: Antimicrobial activity against Burkholderia pseudomallei KHW in presence of 31.3 uM prochlorperazine; format: functional

| INPUT_SMILES | TARGET_SYSTEM | MIC [µg/mL] |
| --- | --- | --- |
| CC[C@H]1OC(=O)[C@H](C)[C@@H](O[C@H]2C[C@@](C)(OC)[C@@H](O)[C@H](C)O2)[C@H](C)[C@@H](O[C@@H]2O[C@H](C)C[C@H](N(C)C)[C@H]2O)[C@](C)(O)C[C@@H](C)CN(C)[C@H](C)[C@@H](O)[C@]1(C)O | Burkholderia pseudomallei | 32 |
| CN[C@@H]1[C@H](O[C@H]2[C@H](O[C@H]3[C@H](O)[C@@H](O)[C@H](N=C(N)N)[C@@H](O)[C@@H]3N=C(N)N)O[C@@H](C)[C@]2(O)C=O)O[C@@H](CO)[C@H](O)[C@H]1O | Burkholderia pseudomallei | 1020 |
| CO[C@H]1C[C@H](O[C@H]2[C@H](C)[C@@H](O[C@@H]3O[C@H](C)C[C@H](N(C)C)[C@H]3O)[C@@H](C)C[C@@]3(CO3)C(=O)[C@H](C)[C@@H](O)[C@@H](C)[C@@H](C)OC(=O)[C@@H]2C)O[C@@H](C)[C@@H]1O | Burkholderia pseudomallei | 512 |
| CN[C@@H]1[C@H](O)[C@H](NC)[C@H]2O[C@@]3(O)C(=O)C[C@@H](C)O[C@H]3O[C@@H]2[C@H]1O | Burkholderia pseudomallei | 256 |
| CC[C@H]1OC(=O)[C@H](C)[C@@H](O[C@H]2C[C@@](C)(OC)[C@@H](O)[C@H](C)O2)[C@H](C)[C@@H](O[C@@H]2O[C@H](C)C[C@H](N(C)C)[C@H]2O)[C@](C)(O)C[C@@H](C)C(=O)[C@H](C)[C@@H](O)[C@]1(C)O | Burkholderia pseudomallei | 64 |
| C[C@H]1COc2c(N3CCN(C)CC3)c(F)cc3c(=O)c(C(=O)O)cn1c23.C[C@H]1COc2c(N3CCN(C)CC3)c(F)cc3c(=O)c(C(=O)O)cn1c23.O | Burkholderia pseudomallei | 2 |

###

Recorded log10 MIC for the following compounds
system: Burkholderia pseudomallei; assay: Antimicrobial activity against Burkholderia pseudomallei KHW in presence of 15.6 uM prochlorperazine; assay type: functional
MEASURED_METRIC: log10 MIC (log10 of the value in µg/mL)

| INPUT_SMILES | TARGET_SYSTEM | MEASURED_METRIC | MEASURED_VALUE |
| --- | --- | --- | --- |
| CN[C@@H]1[C@H](O)[C@H](NC)[C@H]2O[C@@]3(O)C(=O)C[C@@H](C)O[C@H]3O[C@@H]2[C@H]1O | Burkholderia pseudomallei | log10 MIC | 2.41 |
| C[C@H]1COc2c(N3CCN(C)CC3)c(F)cc3c(=O)c(C(=O)O)cn1c23.C[C@H]1COc2c(N3CCN(C)CC3)c(F)cc3c(=O)c(C(=O)O)cn1c23.O | Burkholderia pseudomallei | log10 MIC | 0.30 |
| CC[C@H]1OC(=O)[C@H](C)[C@@H](O[C@H]2C[C@@](C)(OC)[C@@H](O)[C@H](C)O2)[C@H](C)[C@@H](O[C@@H]2O[C@H](C)C[C@H](N(C)C)[C@H]2O)[C@](C)(O)C[C@@H](C)C(=O)[C@H](C)[C@@H](O)[C@]1(C)O | Burkholderia pseudomallei | log10 MIC | 1.81 |
| CN[C@@H]1[C@H](O[C@H]2[C@H](O[C@H]3[C@H](O)[C@@H](O)[C@H](N=C(N)N)[C@@H](O)[C@@H]3N=C(N)N)O[C@@H](C)[C@]2(O)C=O)O[C@@H](CO)[C@H](O)[C@H]1O | Burkholderia pseudomallei | log10 MIC | 3.01 |
| CO[C@H]1C[C@H](O[C@H]2[C@H](C)[C@@H](O[C@@H]3O[C@H](C)C[C@H](N(C)C)[C@H]3O)[C@@H](C)C[C@@]3(CO3)C(=O)[C@H](C)[C@@H](O)[C@@H](C)[C@@H](C)OC(=O)[C@@H]2C)O[C@@H](C)[C@@H]1O | Burkholderia pseudomallei | log10 MIC | 2.71 |
| CC[C@H]1OC(=O)[C@H](C)[C@@H](O[C@H]2C[C@@](C)(OC)[C@@H](O)[C@H](C)O2)[C@H](C)[C@@H](O[C@@H]2O[C@H](C)C[C@H](N(C)C)[C@H]2O)[C@](C)(O)C[C@@H](C)CN(C)[C@H](C)[C@@H](O)[C@]1(C)O | Burkholderia pseudomallei | log10 MIC | 1.51 |

###

Recorded MIC for the following compounds
test system: Burkholderia pseudomallei; test: Antimicrobial activity against Burkholderia pseudomallei KHW in presence of 500 uM prochlorperazine; type: functional

| COMPOUND | UNIT_OF_MEASURE | VALUE_COMPARATOR | MIC |
| --- | --- | --- | --- |
| CO[C@H]1C[C@H](O[C@H]2[C@H](C)[C@@H](O[C@@H]3O[C@H](C)C[C@H](N(C)C)[C@H]3O)[C@@H](C)C[C@@]3(CO3)C(=O)[C@H](C)[C@@H](O)[C@@H](C)[C@@H](C)OC(=O)[C@@H]2C)O[C@@H](C)[C@@H]1O [OLEANDOMYCIN] | µg/mL | = | 64 |
| CN[C@@H]1[C@H](O[C@H]2[C@H](O[C@H]3[C@H](O)[C@@H](O)[C@H](N=C(N)N)[C@@H](O)[C@@H]3N=C(N)N)O[C@@H](C)[C@]2(O)C=O)O[C@@H](CO)[C@H](O)[C@H]1O [STREPTOMYCIN] | µg/mL | = | 256 |
| CN[C@@H]1[C@H](O)[C@H](NC)[C@H]2O[C@@]3(O)C(=O)C[C@@H](C)O[C@H]3O[C@@H]2[C@H]1O [SPECTINOMYCIN] | µg/mL | < | 0.25 |
| CC[C@H]1OC(=O)[C@H](C)[C@@H](O[C@H]2C[C@@](C)(OC)[C@@H](O)[C@H](C)O2)[C@H](C)[C@@H](O[C@@H]2O[C@H](C)C[C@H](N(C)C)[C@H]2O)[C@](C)(O)C[C@@H](C)CN(C)[C@H](C)[C@@H](O)[C@]1(C)O [AZITHROMYCIN] | µg/mL | < | 0.25 |
| C[C@H]1COc2c(N3CCN(C)CC3)c(F)cc3c(=O)c(C(=O)O)cn1c23.C[C@H]1COc2c(N3CCN(C)CC3)c(F)cc3c(=O)c(C(=O)O)cn1c23.O [LEVOFLOXACIN] | µg/mL | < | 0.25 |
| CC[C@H]1OC(=O)[C@H](C)[C@@H](O[C@H]2C[C@@](C)(OC)[C@@H](O)[C@H](C)O2)[C@H](C)[C@@H](O[C@@H]2O[C@H](C)C[C@H](N(C)C)[C@H]2O)[C@](C)(O)C[C@@H](C)C(=O)[C@H](C)[C@@H](O)[C@]1(C)O [ERYTHROMYCIN] | µg/mL | = | 8 |
